Tested on: KAI1 promoter
Assay: KAI1 promoter luciferase reporter assay in transfected Caco2 cells
Type: cell-based, human
Settings: Homo sapiens, Caco-2, 16 h, 1 μM compound, 16 hours, transfected Caco2 cells, luciferase activity relative to DMSO control (=1); read-out: Relative KAI promoter activity
Criterion: fold induction at 1 µM strictly less than 1. Met: 1. Not met: 0.

compound: Cc1cccc(C(=O)NCC(=O)c2ccccc2)c1 [Example 13]
label_value: 0

compound: O=C(CCc1ccccc1)NCC(=O)c1ccc(Cl)cc1 [Example 49]
label_value: 1

compound: O=C(CNS(=O)(=O)c1ccc(F)cc1)c1ccccc1 [Example 26]
label_value: 0

compound: CCOC(=O)N1CCN(Cc2ccc(C(=O)NCC(=O)c3ccccc3)cc2)CC1 [Example 277]
label_value: 0

compound: CCCCC(=O)NCC(=O)c1ccc(Cl)cc1 [Example 61]
label_value: 1

compound: COc1ccccc1N1CCN(Cc2ccc(C(=O)NCC(=O)c3ccccc3)cc2)CC1 [Example 259]
label_value: 0

compound: CN(C)c1ccc(C(=O)CNC(=O)c2ccc(F)c(F)c2)cc1 [Example 116]
label_value: 0

compound: COc1ccc(NC(=O)COc2ccccc2C(=O)NCC(=O)c2ccccc2)cc1OC [Example 216]
label_value: 0

compound: COc1cccc(NC(=O)COc2ccccc2C(=O)NCC(=O)c2ccccc2)c1 [Example 209]
label_value: 0

* * *

System: KAI1 promoter
Experiment: KAI1 promoter luciferase reporter assay in transfected Caco2 cells
Assay type: cell-based, human
Conditions: Homo sapiens, Caco-2, 16 h, 1 μM compound, 16 hours, transfected Caco2 cells, luciferase activity relative to DMSO control (=1); read-out: Relative KAI promoter activity
Quick rule: fold induction at 1 µM of at least 1 means 1.0, below that means 0.0.

compound: CCCCC(=O)NCC(=O)c1cccc(OC)c1
label_value: 1.0

compound: O=C(CNC(=O)c1ccccc1Cl)c1ccc(N2CCOCC2)cc1
label_value: 1.0

compound: Cc1ccccc1C(=O)NCC(=O)c1cccnc1
label_value: 1.0

compound: COc1cccc(C(=O)CNC(=O)c2cccs2)c1
label_value: 1.0

compound: COc1cccc(C(=O)CNS(=O)(=O)c2ccccc2)c1
label_value: 1.0

compound: O=C(CNC(=O)c1ccc(Cl)cc1)c1ccc(Cl)cc1
label_value: 0.0

compound: Cc1cccc(C(=O)N2CCC(Oc3ccccc3C(=O)NCC(=O)c3ccccc3)CC2)c1
label_value: 1.0

compound: COCc1ccccc1C(=O)NCC(=O)c1ccc(Cl)cc1
label_value: 1.0

compound: O=C(CNC(=O)c1ccccc1CN1CCN(c2ncccn2)CC1)c1ccccc1
label_value: 1.0

compound: O=C(CNC(=O)c1ccccc1OC1CCN(S(=O)(=O)Cc2ccccc2)CC1)c1ccccc1
label_value: 0.0

compound: CS(=O)(=O)NCC(=O)c1ccccc1
label_value: 1.0

compound: O=C(CNC(=O)c1ccccc1OC1CCN(C(=O)c2cccc(Cl)c2Cl)CC1)c1ccccc1
label_value: 0.0

compound: O=C(COc1ccccc1C(=O)NCC(=O)c1ccccc1)Nc1ccc(Oc2ccccc2)cc1
label_value: 0.0

compound: CN(C)c1ccc(C(=O)CNC(=O)c2ccc(Cl)cc2)cc1
label_value: 1.0

compound: O=C(CNC(=O)c1ccccc1OC1CCN(S(=O)(=O)c2ccccc2)CC1)c1ccccc1
label_value: 1.0

compound: O=C(CNC(=O)C1CCCCC1)c1ccccc1
label_value: 1.0

compound: COc1cccc(C(=O)CNC(=O)c2cccc(CN(C)Cc3ccccc3)c2)c1
label_value: 1.0

compound: CN(C)c1ccc(C(=O)CNS(=O)(=O)c2ccccc2)cc1
label_value: 1.0

compound: COc1cccc(C(=O)CNC(=O)c2ccc(Cl)cc2)c1
label_value: 1.0

compound: O=C(CNC(=O)c1ccc(F)cc1Cl)c1ccccc1
label_value: 1.0

compound: Cc1cc(C)cc(C(=O)NCC(=O)c2ccc(Cl)cc2)c1
label_value: 0.0

compound: O=C(CNC(=O)c1cc(C(F)(F)F)cc(C(F)(F)F)c1)c1ccc(Cl)cc1
label_value: 0.0

compound: O=C(CNC(=O)c1cccc(Cl)c1Cl)c1ccc(Cl)cc1
label_value: 0.0

compound: CC1CN(Cc2ccc(C(=O)NCC(=O)c3ccccc3)cc2)CC(C)O1 (stereo not drawn)
label_value: 1.0

compound: O=C(CNC(=O)c1ccccc1F)c1cccnc1
label_value: 1.0

compound: COCC(=O)N1CCC(Oc2ccccc2C(=O)NCC(=O)c2ccccc2)CC1
label_value: 0.0

compound: O=C(CNS(=O)(=O)c1ccc(F)cc1)c1ccc(N2CCOCC2)cc1
label_value: 1.0

compound: O=C(CNC(=O)c1cccc(CN2CCc3ccccc3C2)c1)c1ccccc1
label_value: 1.0

compound: CN(C)c1ccc(C(=O)CNC(=O)c2cccs2)cc1
label_value: 1.0

compound: CCN(Cc1cccc(C(=O)NCC(=O)c2ccccc2)c1)c1ccccc1
label_value: 1.0

compound: O=C(CNC(=O)c1ccc(-c2ccccc2)cc1)c1ccccc1
label_value: 1.0

compound: O=C(CNC(=O)C1CCCCC1)c1ccc(Cl)cc1
label_value: 0.0

compound: CCC(=O)NCC(=O)c1cccc(OC)c1
label_value: 1.0

compound: CN(Cc1ccccc1)Cc1ccc(C(=O)NCC(=O)c2ccccc2)cc1
label_value: 1.0

compound: CCCc1ccccc1NC(=O)COc1ccccc1C(=O)NCC(=O)c1ccccc1
label_value: 1.0

compound: CCCCN(C)Cc1ccc(C(=O)NCC(=O)c2ccccc2)cc1
label_value: 1.0

compound: CN(C)c1ccc(C(=O)CNC(=O)c2ccc(C(F)(F)F)cc2)cc1
label_value: 1.0

compound: O=C(CNC(=O)c1ccc(F)cc1)c1ccc(Cl)cc1
label_value: 0.0

* * *

System: KAI1 promoter
Experiment: KAI1 promoter luciferase reporter assay in transfected Caco2 cells
Assay type: cell-based, human
Settings: Homo sapiens, Caco-2, 16 h, 1 μM compound, 16 hours, transfected Caco2 cells, luciferase activity relative to DMSO control (=1); read-out: Relative KAI promoter activity
Criterion: fold induction at 1 µM strictly less than 1. Met: label 1. Not met: label 0.

compound: CC(=O)N1CCC(Oc2ccccc2C(=O)NCC(=O)c2ccccc2)CC1
label_value: label 1
--
compound: O=C(CNS(=O)(=O)c1cccc([N+](=O)[O-])c1)c1ccc(Cl)cc1
label_value: label 1
--
compound: O=C(CNC(=O)c1ccc(F)cc1)c1cccnc1
label_value: label 0
--
compound: O=C(CNC(=O)c1ccccc1OC1CCN(C(=O)c2ccc(C(F)(F)F)cc2)CC1)c1ccccc1
label_value: label 1
--
compound: COc1ccc(C(=O)NCC(=O)c2ccc(N(C)C)cc2)cc1
label_value: label 0
--
compound: O=C(CNC(=O)C1CCC1)c1ccc(N2CCOCC2)cc1
label_value: label 0
--
compound: O=C(CNC(=O)c1cccc([N+](=O)[O-])c1)c1ccccc1 [Example 34, 3-nitro-N-(2-oxo-2-phenylethyl)benzamide]
label_value: label 0

* * *

System: KAI1 promoter
Test: KAI1 promoter luciferase reporter assay in transfected Caco2 cells
Format: cell-based, human
Conditions: Homo sapiens, Caco-2, 16 h, 1 μM compound, 16 hours, transfected Caco2 cells, luciferase activity relative to DMSO control (=1); read-out: Relative KAI promoter activity

compound: CCCNC(=O)COc1ccccc1C(=O)NCC(=O)c1ccccc1
fold induction at 1 µM: 0.982
//
compound: CN(C)c1ccc(C(=O)CNS(=O)(=O)c2ccc(Cl)cc2)cc1
fold induction at 1 µM: 1.36
//
compound: C/C=C/C(=O)NCC(=O)c1ccccc1 [Example 8, (E)-N-(2-oxo-2-phenylethyl)but-2-enamide]
fold induction at 1 µM: 1.15
//
compound: Cc1cc(C)cc(C(=O)NCC(=O)c2ccccc2)c1
fold induction at 1 µM: 1
//
compound: O=C(CNC(=O)C1CCC1)c1ccccc1
fold induction at 1 µM: 0.98

* * *

Test system: KAI1 promoter
Experiment: KAI1 promoter luciferase reporter assay in transfected Caco2 cells
Type: cell-based, human
Conditions: Homo sapiens, Caco-2, 16 h, 1 μM compound, 16 hours, transfected Caco2 cells, luciferase activity relative to DMSO control (=1); read-out: Relative KAI promoter activity

compound: CC(Oc1ccccc1)C(=O)N1CCC(Oc2ccccc2C(=O)NCC(=O)c2ccccc2)CC1 (stereo not drawn)
fold induction at 1 µM: 1.08
--
compound: CCCCC(=O)NCC(=O)c1ccc(N(C)C)cc1
fold induction at 1 µM: 1.7
--
compound: CCC(=O)NCC(=O)c1cccnc1
fold induction at 1 µM: 1.17
--
compound: COc1cc(OC)cc(C(=O)NCC(=O)c2ccc(N(C)C)cc2)c1
fold induction at 1 µM: 0.96
--
compound: C=CCN(CC=C)Cc1cccc(C(=O)NCC(=O)c2ccccc2)c1
fold induction at 1 µM: 1.1
--
compound: COCC(=O)NCC(=O)c1ccc(N(C)C)cc1
fold induction at 1 µM: 2.44
--
compound: O=C(CNC(=O)c1cccc(CN2CCN(c3ccc([N+](=O)[O-])cc3)CC2)c1)c1ccccc1
fold induction at 1 µM: 1.6
--
compound: CN(C)c1ccc(C(=O)CNC(=O)c2cccc(Cl)c2)cc1
fold induction at 1 µM: 1.81
--
compound: O=C(CNC(=O)c1ccccc1C(F)(F)F)c1ccccc1
fold induction at 1 µM: 1.41
